- Measurement conditions: in ethyl acetate, 318.15 K
Quantity: solubility (mole fraction)

[[record]]
chem_smiles = "Nc1nc(N)c2nc(-c3ccccc3)c(N)nc2n1"
reported_value = "3.98e-05"


====

- Measurement conditions: in n-methylformamide, 298.15 K
Quantity: solubility (mole fraction)

[[record]]
chem_smiles = "Nc1nc(N)c2nc(-c3ccccc3)c(N)nc2n1"
quantity = "solubility (mole fraction)"
reported_value = 0.00143


====

- Measurement conditions: in isobutanol, 303.15 K
Quantity: solubility (mole fraction)

[[record]]
chem_smiles = "Nc1nc(N)c2nc(-c3ccccc3)c(N)nc2n1"
quantity = "solubility (mole fraction)"
reported_value = "1.23e-05"


====

- Measurement conditions: in n-propanol, 318.15 K
Quantity: solubility (mole fraction)

[[record]]
chem_smiles = "Nc1nc(N)c2nc(-c3ccccc3)c(N)nc2n1"
reported_value = "5.29e-05"


====

- Measurement conditions: in isopropanol, 283.15 K
Quantity: solubility (mole fraction)

[[record]]
chem_smiles = "Nc1nc(N)c2nc(-c3ccccc3)c(N)nc2n1"
quantity = "solubility (mole fraction)"
reported_value = "2.02e-06"


====

- Measurement conditions: in ethyl acetate, 323.15 K
Quantity: solubility (mole fraction)

[[record]]
chem_smiles = "Nc1nc(N)c2nc(-c3ccccc3)c(N)nc2n1"
reported_value = "6.09e-05"


====

- Measurement conditions: in acetonitrile, 308.15 K
Quantity: solubility (mole fraction)

[[record]]
chem_smiles = "Nc1nc(N)c2nc(-c3ccccc3)c(N)nc2n1"
quantity = "solubility (mole fraction)"
reported_value = "1.61e-05"


====

- Measurement conditions: in water, 313.15 K
Quantity: solubility (mole fraction)

[[record]]
chem_smiles = "Nc1nc(N)c2nc(-c3ccccc3)c(N)nc2n1"
quantity = "solubility (mole fraction)"
reported_value = "3.13e-06"


====

- Measurement conditions: in 1,2-dichloroethane, 288.15 K
Quantity: solubility (mole fraction)

[[record]]
chem_smiles = "Nc1nc(N)c2nc(-c3ccccc3)c(N)nc2n1"
reported_value = "2.31e-06"


Reference source: BigSolDB 2.1
